Assay: Inhibition of Sprague-Dawley rat adrenal gland 11-hydroxylase using [1,2-3H]-hydroxy-11-deoxycorticosterone as substrate after 30 mins by TLC analysis
Assay type: tissue-based
pIC50: −log10 of the molar value.
A collection of compounds and their measured pIC50

Worked examples follow.
{"compound": "CNC(=O)c1ccc2cc(C(C)(O)c3cncn3C)ccc2c1 (racemic)", "pIC50": "< 6.00"}
{"compound": "CNC(=O)c1ccc2cc(C3(O)CCn4cncc43)ccc2c1 (racemic)", "pIC50": "< 6.00"}
{"compound": "NC(=O)c1ccc2cc(C3(O)CCn4cncc43)ccc2c1 (racemic)", "pIC50": 7.00}
{"compound": "CC(C)NC(=O)c1ccc2cc(C3(O)CCn4cncc43)ccc2c1 (racemic)", "pIC50": "< 6.00"}
{"compound": "CNC(=O)c1ccc2cc(C3(O)c4cncn4CC3(C)C)ccc2c1 (racemic)", "pIC50": 6.28}
{"compound": "O=C(NC1CC1)c1ccc2cc(C3(O)CCn4cncc43)ccc2c1 (racemic)", "pIC50": "< 6.00"}
{"compound": "CCNC(=O)c1ccc2cc(C3(O)CCn4cncc43)ccc2c1 (racemic)", "pIC50": "< 6.00"}
{"compound": "CNC(=O)c1ccc2cc([C@@]3(O)CCn4cncc43)ccc2c1 [ORTERONEL]", "pIC50": "< 6.00"}

*Q* Requested field: pIC50. Item: CNC(=O)c1ccc2cc([C@]3(O)CCn4cncc43)ccc2c1
*A* < 6.00

*Q* Moving on to the next compound: CNC(=O)c1ccc2cc(C3CCn4cncc43)ccc2c1 (racemic)
*A* 6.54

*Q* # repeat for CNC(=O)c1ccc2cc(C(O)(c3c[nH]cn3)C(C)C)ccc2c1 (racemic)
*A* < 6.00
